Give inhibition for every item shown.
Assay: TLR3 IRF3 reporter activation blockers – cell-based, poly I:C stimulus, luciferase, 10K MLSCN set, primary screen (AID 602277)
Conditions: HEK293-TLR3 RL24 IRF3 luciferase reporter, at 10 µM, hits give high values
Entry rule: numbers only, all in %.

INPUT: Look up and report measured inhibition for this entry: "CC(=O)SCC(=O)N=c1sc2cc(F)ccc2n1C"
OUTPUT: 2.45

INPUT: Provide one value: measured inhibition of "COc1ccccc1-c1nc(C(F)(F)F)c(OC)o1"
OUTPUT: 11.8

INPUT: State its inhibition for this compound: "CCOc1ncccc1C(=O)OCC(=O)Nc1ncc(C(F)(F)F)cc1Cl"
OUTPUT: 18

INPUT: Please supply the value of reported inhibition for the item "COc1cccc(CNC(=O)C2CCN(S(=O)(=O)c3ccc(F)cc3)CC2)c1"
OUTPUT: 20.1

Reference source for all entries: PubChem BioAssay
